# Test system: U-251
# EXPERIMENTAL_PROTOCOL: NCI tumour cell line growth inhibition, 48 h
Active and inactive are the calls of the source. No stated cut-off is given here; in the data, active = GI50 up to about 1.1 µM and inactive = higher.
I would appreciate it if you answered using one of these outcomes: class 1 (active), class 0 (inactive)

Here are 8 compounds together with their reported answers.
Exam item: Recorded test call requested for C/C(=C\C(C)COCc1ccccc1)[C@H](COCc1ccccc1)OCc1ccccc1 (stereo not given in full)
Marked response: class 0

Exam item: Recorded test call requested for "Nc1ccc(S(=O)(=O)Nc2nc3ccccc3nc2N2CCCCC2)cc1"
Marked response: class 0

Exam item: Recorded test call requested for "C(=C\Nc1ccc(-c2ccccc2)cc1)/C=N/c1ccc(-c2ccccc2)cc1"
Marked response: class 0

Exam item: Recorded test call requested for "COC(=O)[C@H]1COC(=S)N1C(=O)[C@@H](C)[C@H](O)C(C)C"
Marked response: class 0

Exam item: Recorded test call requested for "Cc1csc2c(P(=O)(OC(C)C)OC(C)C)c(-c3ccccc3)cn12"
Marked response: class 0

Exam item: Recorded test call requested for OC(c1cccs1)c1cc2ccccc2s1 (stereo not given)
Marked response: class 0

Exam item: Recorded test call requested for "CC(C)(C)NC1=NC(C(F)(F)F)(C(F)(F)F)NC(=O)N1"
Marked response: class 0

Exam item: Recorded test call requested for CCCCCCCCCCCCCCCCNc1ccn(C2CC(O)C(COC(c3ccccc3)(c3ccccc3)c3ccc(OC)cc3)O2)c(=O)n1 (stereo not given)
Marked response: class 0

Further cases:
Exam item: Recorded test call requested for "[O-][Cl+3]([O-])([O-])[O-].[O-][Cl+3]([O-])([O-])[O-].c1ccn2c(N3CCOCC3)[n+]3c4ccccc4[n+]4c(N5CCOCC5)n5ccccc5c4c3c2c1"
Marked response: class 0

Exam item: Recorded test call requested for "O=c1[nH]c2nc3ccccc3c(=O)n2nc1Cc1ccccc1"
Marked response: class 0

Exam item: Recorded test call requested for "CC1=C(C(=S)Nc2ccc(Cl)c(C(=O)OC(C)C)c2)SCCO1"
Marked response: class 0

Exam item: Recorded test call requested for "Cc1cc(/N=C2\C=C(Nc3cc(C)on3)C(=O)c3ccccc32)no1"
Marked response: class 0

Exam item: Recorded test call requested for "COc1ccc(/N=N/C(=N\c2ccccc2)c2ccc(N(CCC#N)CCC#N)cc2)cc1"
Marked response: class 0

Exam item: Recorded test call requested for "c1ccc(CCNCc2ccco2)nc1"
Marked response: class 0

Exam item: Recorded test call requested for "CC1=C(O)C(=O)C=C2C1=CC=C1[C@@]2(C)CC[C@@]2(C)[C@@H]3C[C@](C)(C(=O)O)CC[C@]3(C)CC[C@]12C"
Marked response: class 1

Exam item: Recorded test call requested for "CCCCCCCCCCCCCCCC(=O)NCC(OCC)OCC"
Marked response: class 0

Exam item: Recorded test call requested for "O=c1n(-c2ccccc2)c(=O)n2n1C1CCC2CC1"
Marked response: class 0

Exam item: Recorded test call requested for "O=C(Cc1nc2ccc(C(=O)c3ccccc3)cc2nc1O)C(=O)Nc1ccccc1[N+](=O)[O-]"
Marked response: class 0

Exam item: Recorded test call requested for COc1ccc(C2C(Cl)C(=O)N2n2cnc3ccccc3c2=O)cc1 (stereo not given)
Marked response: class 0

Exam item: Recorded test call requested for "CC(/C=C/C(=O)c1sc(-n2nc(-c3ccccc3)cc2-c2ccccc2)nc1C)=C\c1ccccc1"
Marked response: class 0

----------
# Test system: SW-620
# EXPERIMENTAL_PROTOCOL: NCI tumour cell line growth inhibition, 48 h
Calls of active or inactive are those of the source. Cut-off read from the data, not from the text of the source: active = GI50 up to about 1.1 µM and inactive = higher.
I would appreciate it if you answered using one of these outcomes: active, inactive

Here are 3 compounds together with their reported answers.
Exam item: Recorded test call requested for N#Cc1cccc(C2SCc3nc4ccccc4n32)c1 (stereo not given)
Marked response: inactive

Exam item: Recorded test call requested for COC(=O)C(c1n[nH]c2ccccc12)C(C(=O)OC)c1n[nH]c2ccccc12 (stereo not given)
Marked response: inactive

Exam item: Recorded test call requested for "CC(/C=C/C(=O)c1sc(-n2nc(-c3ccccc3)cc2-c2ccccc2)nc1C)=C\c1ccccc1"
Marked response: inactive

Further cases:
Exam item: Recorded test call requested for "CN(C)CCNC(=O)c1ccc(NCCCN(C)CCCNc2ccc(C(=O)NCCN(C)C)c3nc4ccc([N+](=O)[O-])cc4c(O)c23)c2c(O)c3cc([N+](=O)[O-])ccc3nc12"
Marked response: active

Exam item: Recorded test call requested for "COC(=O)[C@H]1COC(=S)N1C(=O)[C@@H](C)[C@H](O)C(C)C"
Marked response: inactive

Exam item: Recorded test call requested for Nc1nccc(NCC2(CO)CC(CCc3ccccc3)C2)n1 (stereo not given)
Marked response: inactive

Exam item: Recorded test call requested for CC(C)NC(=O)OCc1nnn2c1C(OC(=O)NC(C)C)CC2 (stereo not given)
Marked response: inactive

Exam item: Recorded test call requested for CCCCC1Cc2cc(OC)ccc2-c2n1c1cc(OC)ccc1[n+]2C.CCCCC1Cc2cc(OC)ccc2-c2n1c1ccc(OC)cc1[n+]2C (stereo not given)
Marked response: inactive

Exam item: Recorded test call requested for "Nc1ccc(C(c2ccccc2)(c2ccccc2)c2ccccc2)cc1"
Marked response: inactive

Exam item: Recorded test call requested for "COC1(OC)CC(CO)(CNc2nc(N)nc(Cl)c2C=O)C1"
Marked response: inactive

Exam item: Recorded test call requested for Cc1cccc2c1CC1(Cc3ccccc3C1=O)C2=O (stereo not given)
Marked response: inactive

Exam item: Recorded test call requested for "CN(C)CCNC(=O)c1cccc2[nH]c(-c3ccccn3)nc12"
Marked response: inactive

Exam item: Recorded test call requested for "O=c1[nH]c2nc[nH]c2c(=O)n1C1CCCCC1"
Marked response: inactive

Exam item: Recorded test call requested for "O=C1C[C@@H](c2ccccc2)NCCCCN(O)CCCN1"
Marked response: inactive

Exam item: Recorded test call requested for Cc1cccc(C(C)(C)C)c1NC(=O)CC1C(=O)Nc2ccccc2S1(=O)=O (stereo not given)
Marked response: inactive
